pKi: −log10 of the molar value. Where a SMILES comes first, the peptide text is derived from it. [ ]: non-standard residue; d: D form. Ala(2-NH2-benzothiazol-6-yl) = Nc1nc2ccc(C[C@H](N)C(=O)O)cc2s1; Phe(4-CONH2) = NC(=O)c1ccc(C[C@H](N)C(=O)O)cc1
Let's go through some recorded pKi values for Delta-type opioid receptor (Homo sapiens) together.

[
  {
    "COMPOUND": "CSCC[C@H](NC(=O)[C@H](Cc1ccccc1)NC(=O)CNC(=O)CNC(=O)[C@@H](N)Cc1ccc(C(N)=O)cc1)C(N)=O (H-[Phe(4-CONH2)]GGFM-NH2)",
    "QUALIFYING_SIGN": "=",
    "pKi": 8.89
  },
  {
    "COMPOUND": "CC(C)C[C@@H](NC(=O)[C@H](Cc1ccccc1)NC(=O)CNC(=O)[C@@H](C)NC(=O)[C@@H](N)Cc1cccc(C(N)=O)c1)C(=O)O",
    "QUALIFYING_SIGN": "=",
    "pKi": 6.77
  },
  {
    "COMPOUND": "Cc1cc(C(N)=O)cc(C)c1C[C@H](N)C(=O)N[C@H](CO)C(=O)NCC(=O)N[C@@H](Cc1ccccc1)C(=O)N[C@@H](CC(C)C)C(=O)N[C@H](C(=O)O)[C@@H](C)O",
    "QUALIFYING_SIGN": "=",
    "pKi": 8.92
  },
  {
    "COMPOUND": "CC(C)C[C@@H](NC(=O)[C@H](Cc1ccccc1)NC(=O)CNC(=O)[C@@H](C)NC(=O)[C@@H](N)Cc1cc[n+]([O-])cc1)C(=O)O",
    "QUALIFYING_SIGN": "<",
    "pKi": 5.00
  },
  {
    "COMPOUND": "CC1(C)SSC(C)(C)[C@@H](NC(=O)[C@@H](N)Cc2ccc(C(N)=O)cc2)C(=O)NCC(=O)N[C@@H](Cc2ccccc2)C(=O)N[C@H]1C(=O)O",
    "QUALIFYING_SIGN": "=",
    "pKi": 7.72
  },
  {
    "COMPOUND": "CC(C)C[C@H](NC(=O)[C@H](Cc1ccccc1)NC(=O)CNC(=O)CNC(=O)[C@@H](N)Cc1ccc2nc(N)sc2c1)C(=O)O (H-[Ala(2-NH2-benzothiazol-6-yl)]GGFL-OH)",
    "QUALIFYING_SIGN": "=",
    "pKi": 7.72
  }
]
